- methodSummary: MTT cytotoxicity assay, 3T3 cells
- Type: cell-based, mouse
- conditionParameters: mouse, 3T3 mouse embryo fibroblasts, 3T3; 10 000 b/j; koncentrace 100 μM; individual experiments; read-out: MTT viability (0 = 100)
Property: viability at 72 h, 100 μM; scope: individual molecules

INSERT INTO measurements (structuresmiles, valuetype, observedvalue) VALUES
  ('CCN=CNN=C(c1ccccc1)c1ccccn1', 'viability at 72 h, 100 μM', '88.8%');

// returns reported viability at 72 h, 100 μM for input CCNC(=O)NN=C(c1ccccc1)c1ccccn1
87.1%

====

Property: IC50; scope: individual compounds
- Tested on: HL-60 human promyelocytic leukemia cells
- methodSummary: MTT cytotoxicity assay, HL-60 cells
- Type: cell-based
- conditionParameters: Homo sapiens, HL-60, 72 h, HL-60, 72 h/37°C, MTT; mean ± SD, n ≥ 4; read-out: IC50
Report the figure in µM without appending any unit label.

INSERT INTO assay_data (structuresmiles, valuetype, readoutunits, observedvalue) VALUES
  ('CCNC(=S)NN=C(c1ccccc1)c1ccccn1', 'IC50', 'µM', 0.003);

// returns reported IC50 for input CCN=CNN=C(c1ccccc1)c1ccccn1
52.1

====

Property: kaspáza (3) a 7, signal / viabilita, průměry; scope: individual molecules
- System: caspases 3/7
- methodSummary: Caspase activity, luminescent kit, caspases 3/7
- Type: cell-based, human
- conditionParameters: 72 hodin; normalised to viability; mean
// no unit string in output, number only

INSERT INTO measurements (molecule, targetortestsystem, observedvalue) VALUES
  ('CCNC(=O)NN=C(c1ccccc1)c1ccccn1 [E-Bp4eS, 2-benzoylpyridine 4-ethylsemicarbazone]', 'caspases 3/7', 79.5458),
  ('CCN=CNN=C(c1ccccc1)c1ccccn1', 'caspases 3/7', 80.4036),
  ('CCNC(=O)NN=C(c1ccccc1)c1ccccn1 [Z-Bp4eS, 2-benzoylpyridine 4-ethylsemicarbazone]', 'caspases 3/7', 77.1595);

Now, please, on to the next molecule.
// returns reported kaspáza (3) a 7, signal / viabilita, průměry for input CCNC(=S)NN=C(c1ccccc1)c1ccccn1
236.406

====

- methodSummary: MTT cytotoxicity assay, 3T3 cells
- Type: cell-based, mouse
- conditionParameters: mouse, 3T3 mouse embryo fibroblasts, 3T3; 10 000 b/j; koncentrace 10 μM; individual experiments; read-out: MTT viability (0 = 100)
Property: viability at 72 h, 10 μM; scope: individual compounds

INSERT INTO results (structuresmiles, valuetype, observedvalue) VALUES
  ('CCN=CNN=C(c1ccccc1)c1ccccn1', 'viability at 72 h, 10 μM', '103%');

Now, please, on to the next compound.
// returns reported viability at 72 h, 10 μM for input CCNC(=O)NN=C(c1ccccc1)c1ccccn1
91.6%

====

- methodSummary: MTT cytotoxicity assay, 3T3 cells
- Format: cell-based, mouse
- conditionParameters: mouse, 3T3 mouse embryo fibroblasts, 3T3; 10 000 b/j; koncentrace 1000 μM; mean; read-out: MTT viability (0 = 100), průměr
Property: viability at 72 h, 1000 μM; scope: individual compounds
Report the figure in % without appending any unit label.

INSERT INTO results (structuresmiles, readoutunits, observedvalue) VALUES
  ('CCNC(=O)NN=C(c1ccccc1)c1ccccn1', '%', 66.7);

Now, please, on to the next compound.
// returns reported viability at 72 h, 1000 μM for input CCN=CNN=C(c1ccccc1)c1ccccn1
47.2

====

Property: viability at 72 h, 1 μM; scope: individual molecules
- methodSummary: MTT cytotoxicity assay, 3T3 cells
- Assay type: cell-based, mouse
- conditionParameters: mouse, 3T3 mouse embryo fibroblasts, 3T3; 10 000 b/j; koncentrace 1 μM; mean; read-out: MTT viability (0 = 100), průměr
Value and unit, in that order.

INSERT INTO results (structuresmiles, valuetype, observedvalue) VALUES
  ('CCN=CNN=C(c1ccccc1)c1ccccn1', 'viability at 72 h, 1 μM', '100%');

Now, please, on to the next molecule.
// returns reported viability at 72 h, 1 μM for input CCNC(=O)NN=C(c1ccccc1)c1ccccn1
98%

====

- Test system: caspases 3/7
- methodSummary: Caspase activity, luminescent kit, caspases 3/7
- Type: cell-based, human
- conditionParameters: 24 hodin; mean, normalised to viability
valueType: kaspáza (3) a 7, % kontroly (% kontroly)
Report the figure in % kontroly without appending any unit label.

INSERT INTO results (compound, observedvalue) VALUES
  ('CCNC(=O)NN=C(c1ccccc1)c1ccccn1 [E-Bp4eS, 2-benzoylpyridine 4-ethylsemicarbazone]', 112.45),
  ('CCN=CNN=C(c1ccccc1)c1ccccn1', 101.36);

// returns reported kaspáza (3) a 7, % kontroly for input CCNC(=O)NN=C(c1ccccc1)c1ccccn1 [Z-Bp4eS, 2-benzoylpyridine 4-ethylsemicarbazone]
106.11

One more compound: CCNC(=S)NN=C(c1ccccc1)c1ccccn1
203.48

====

- methodSummary: Ascorbate oxidation assay (redox activity of iron complexes);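 for odečet 0 (reading minus time 0 reading) at čas 30, průměr (mean): IBE 1 means fully coordinated iron chelator complexes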
- Assay type: biochemical
- conditionParameters: sheet IBE 1; time 30; mean
valueType: odečet 0 (reading minus time 0 reading) at čas 30, průměr (mean)
// no unit string in output, number only

Solved entries:
INSERT INTO assay_data (molecule, observedvalue) VALUES
  ('CC(=O)N(O)CCCCCNC(=O)CCC(=O)N(O)CCCCCNC(=O)CCC(=O)N(O)CCCCCN [DFO, deferoxamine, reference compound]', -0.0308),
  ('O=C(O)CN(CCN(CC(=O)O)CC(=O)O)CC(=O)O [EDTA, reference compound]', -0.3705),
  ('CCNC(=S)NN=C(c1ccccc1)c1ccccn1 [Bp4eT]', -0.2442),
  ('CCN=CNN=C(c1ccccc1)c1ccccn1 [Bp4eA]', -0.09465),
  ('CCNC(=O)NN=C(c1ccccc1)c1ccccn1 [Z-Bp4eS, 2-benzoylpyridine 4-ethylsemicarbazone]', -0.09054);

// returns reported odečet 0 (reading minus time 0 reading) at čas 30, průměr (mean) for input CCNC(=O)NN=C(c1ccccc1)c1ccccn1 [E-Bp4eS, 2-benzoylpyridine 4-ethylsemicarbazone]
-0.1028

====

- Tested on: caspase 8
- methodSummary: Caspase activity, luminescent kit, caspase 8;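 note: MCF-7 cells treated at 100 nM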
- Format: cell-based, human
- conditionParameters: 24 hodin; mean
valueType: kaspáza 8, raw signal, průměry
// no unit string in output, number only

Solved entries:
INSERT INTO results (compound, valuetype, observedvalue) VALUES
  ('CCNC(=S)NN=C(c1ccccc1)c1ccccn1 [Bp4eT]', 'kaspáza 8, raw signal, průměry', 1049.5),
  ('CCNC(=O)NN=C(c1ccccc1)c1ccccn1 [E-Bp4eS, 2-benzoylpyridine 4-ethylsemicarbazone]', 'kaspáza 8, raw signal, průměry', 1641.12),
  ('CCNC(=O)NN=C(c1ccccc1)c1ccccn1 [Z-Bp4eS, 2-benzoylpyridine 4-ethylsemicarbazone]', 'kaspáza 8, raw signal, průměry', 1591.25);

Now, please, on to the next compound.
// returns reported kaspáza 8, raw signal, průměry for input CCN=CNN=C(c1ccccc1)c1ccccn1 [Bp4eA]
1384.75

====

- Tested on: H9c2 cardiomyoblasts
- methodSummary: MTT cytotoxicity assay, H9c2 cells
- Type: cell-based, rat
- conditionParameters: Rattus norvegicus, H9c2, H9c2; 10 000 b/j; MTT; průměr (mean); sheet E-Bp4eS; read-out: IC50
valueType: IC50 (µM)
Report the figure in µM without appending any unit label.

// returns reported IC50 for input CCNC(=O)NN=C(c1ccccc1)c1ccccn1
884

====

- methodSummary: Viability (viabilita) used to normalise caspase activity;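 note: compound tested at 100 nM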
- Type: cell-based, human
- conditionParameters: human, MCF-7 cells, 24 hodin; kontrola = 100
Property: viability at 24 h, 100 nM; scope: individual compounds
Report the figure in % without appending any unit label.

Solved entries:
INSERT INTO measurements (structuresmiles, valuetype, observedvalue) VALUES
  ('CCNC(=S)NN=C(c1ccccc1)c1ccccn1', 'viability at 24 h, 100 nM', 52.8),
  ('CCNC(=O)NN=C(c1ccccc1)c1ccccn1', 'viability at 24 h, 100 nM', 99.5);

// returns reported viability at 24 h, 100 nM for input CCN=CNN=C(c1ccccc1)c1ccccn1
95.6

====

- methodSummary: Ascorbate oxidation assay (redox activity of iron complexes)
- Assay type: biochemical
- conditionParameters: sheet IBE 1; time 20; mean
valueType: odečet 0 (reading minus time 0 reading) at čas 20, průměr (mean)
// no unit string in output, number only

Solved entries:
INSERT INTO assay_data (compound, observedvalue) VALUES
  ('CCN=CNN=C(c1ccccc1)c1ccccn1', -0.06498),
  ('CCNC(=O)NN=C(c1ccccc1)c1ccccn1 [Z-Bp4eS, 2-benzoylpyridine 4-ethylsemicarbazone]', -0.06288),
  ('CCNC(=S)NN=C(c1ccccc1)c1ccccn1', -0.1811);

// returns reported odečet 0 (reading minus time 0 reading) at čas 20, průměr (mean) for input CCNC(=O)NN=C(c1ccccc1)c1ccccn1 [E-Bp4eS, 2-benzoylpyridine 4-ethylsemicarbazone]
-0.07141

One more compound: O=C(O)CN(CCN(CC(=O)O)CC(=O)O)CC(=O)O [EDTA, reference compound]
-0.2713

One more compound: CC(=O)N(O)CCCCCNC(=O)CCC(=O)N(O)CCCCCNC(=O)CCC(=O)N(O)CCCCCN [DFO, deferoxamine, reference compound]
-0.0179
